Assay: NCI Yeast Anticancer Drug Screen. Data for the rad18 strain (AID 177)
Details: S. cerevisiae rad18 mutant growth inhibition; at 33.0 µM; active compounds read high
About 79,000 compounds went through this panel and 15% of them were active in at least one assay; those are over-represented in the sample as a whole.
Record Fulfilled whenever growth inhibition is at 30% or higher; record Not fulfilled when lower.

> print(dat)
                                    compound          group
 1  [N-]=[N+]=NC1=C(c2ccccn2)C(=O)c2cccc3cccc1c23      Fulfilled
 2              C[Si](C)(C)CNC(=O)OCc1ccccc1  Not fulfilled
 3  CC(C)C1=CCC2C(=C1)CCC1C(C)(C(=O)O)CCCC21C (configuration not stated) (tested in a mixture with another compound)  Not fulfilled
 4  Cc1nn(-c2cc(Cl)ccc2[N+](=O)[O-])c(C)c1Cl  Not fulfilled
 5               c1ccc2c(c1)sc1nc3ccncc3nc12  Not fulfilled
 6          COCCOC(=O)CCn1cc(F)c(=O)[nH]c1=O      Fulfilled
 7  CN1c2ccc(Cl)cc2C(=O)NC1c1ccc([N+](=O)[O-])s1 (configuration not stated)      Fulfilled
 8              c1ccc2c(c1)Oc1cccc3cccc-2c13      Fulfilled
 9  c1ccc2c(c1)-c1nc3ccccc3cc1C2N1CCOCC1 (configuration not stated)  Not fulfilled
10  CC[n+]1ccc2c(C)c3[nH]c4ccc(O)cc4c3c(C)c2c1  Not fulfilled
11                           S=C(S)NN1CCOCC1      Fulfilled
12      BrCC[P+](c1ccccc1)(c1ccccc1)c1ccccc1      Fulfilled
